target: OsWRKY34 (Oryza sativa, UniProt Q0JBA9 1-250); test: protein-binding microarray (RPBM); PBS, 2% BSA, 51.3 ng/ul salmon testes DNA, 50 uM zinc acetate, 200 nM TF, 25 C, 1 h; high values mean tight binding; conditions: protein: recombinant; tags: N-terminal polyhistidine and DsRed monomer fusion (pET32a); label: CyDye5-dUTP incorporated in the synthesized complementary strand; 3' TTTTT single-stranded linker to array surface; dsDNA, one strand shown
Sequence (Q0JBA9 entry or part of it): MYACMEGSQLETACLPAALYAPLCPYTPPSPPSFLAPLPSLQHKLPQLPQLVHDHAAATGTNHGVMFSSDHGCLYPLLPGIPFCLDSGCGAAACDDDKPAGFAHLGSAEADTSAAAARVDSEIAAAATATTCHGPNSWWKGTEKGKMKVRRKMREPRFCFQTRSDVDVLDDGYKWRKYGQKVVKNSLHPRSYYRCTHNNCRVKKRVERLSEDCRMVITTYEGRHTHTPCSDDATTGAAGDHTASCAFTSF
Whole data set: some 68,000 sequences, median “fluorescence intensity (a.u.)” near 9,100, cut for the highest 2% near 16,000. Many of the other results were omitted from the sample, so the highest values are more common in it than they were.
Reported Endpoint: binding signal

Problem: Given the entry ATTTTGGTACTACTCTATATTTTAGTTTGCAGCTTGTGCTCGGAGTCACCTAGTGCAG , what binding signal was observed with OsWRKY34 (Oryza sativa, UniProt Q0JBA9 1-250)?
Solution: 10600 fluorescence intensity (a.u.)

Problem: Quick check: binding signal on OsWRKY34 (Oryza sativa, UniProt Q0JBA9 1-250), item CCCTATCCATTAATTACTCGCTTCGTGGTCGGAATCCATGCGGAGTCACCTAGTGCAG ?
Solution: 8200 fluorescence intensity (a.u.)

Problem: Find binding signal (OsWRKY34 (Oryza sativa, UniProt Q0JBA9 1-250)) for the entry ACCCGAGATCTGATTCACTACCGCCGCCGGATCAAGCCACCGGAGTCACCTAGTGCAG
Solution: 8320 fluorescence intensity (a.u.)

Problem: Recall the recorded binding signal for AGGACACCTTAGCATTCAGCCATCTTATTTCTCTGTATTACGGAGTCACCTAGTGCAG with OsWRKY34 (Oryza sativa, UniProt Q0JBA9 1-250) and state it.
Solution: 9420 fluorescence intensity (a.u.)

Problem: Short answer please: binding signal, OsWRKY34 (Oryza sativa, UniProt Q0JBA9 1-250), entry CTGATTATACCATTGTTTTCGTTGCAACTAAATCTTGATACGGAGTCACCTAGTGCAG
Solution: 9280 fluorescence intensity (a.u.)

Problem: Value wanted: binding signal (OsWRKY34 (Oryza sativa, UniProt Q0JBA9 1-250)) of entry TGGAGGTGGTGGTGGGAGGAAGGGGAGGAGGAGGCGCGGCCGGAGTCACCTAGTGCAG
Solution: 15100 fluorescence intensity (a.u.)

Problem: Enter reported binding signal observed with OsWRKY34 (Oryza sativa, UniProt Q0JBA9 1-250) for GGTTTGGGTTCCTCTCTCGTCTCGTCTGTTTTGTTTTCCCCGGAGTCACCTAGTGCAG
Solution: 21900 fluorescence intensity (a.u.)

Problem: Item GGTTTGTTTGTCGTTCATGTGACGAGCGCATCCGTTTTCCCGGAGTCACCTAGTGCAG with OsWRKY34 (Oryza sativa, UniProt Q0JBA9 1-250) - binding signal?
Solution: 9140 fluorescence intensity (a.u.)

Problem: Find binding signal (OsWRKY34 (Oryza sativa, UniProt Q0JBA9 1-250)) for the entry ACTGCTGCTGCATCGGCGCCTTCACCAAGATGTCAACGGACGGAGTCACCTAGTGCAG
Solution: 8350 fluorescence intensity (a.u.)
